Hello, the source for this data is PubChem BioAssay AID2060626, in case you need it.

- Tested on: 168753-222-R-J1-PDC complex spheroid viability;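 also: luminescence signal used as surrogate for viable cell amount; viability measured after seven days of drug exposure; 100% = DMSO vehicle control wells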
- experimental protocol: Anticancer human tumor 168753-222-R-J1-PDC patient-derived bladder carcinoma cell line growth inhibition [CLK]
- details: second compound 0.1 µM; first compound 0.00949 µM; active compounds read low
Below: a set of entries, each annotated with reported viability, T/C.
measure: viability, T/C (%)

molecule	measure	reported result
NC(=O)C(=Cn1cnc(-c2cc(C(F)(F)F)cc(C(F)(F)F)c2)n1)c1cncnc1 + CNC(=O)c1ccc(Nc2nc(OC3CCCC3)c3c(-c4ccc5nc(C)oc5c4)c[nH]c3n2)c(OC)c1	viability, T/C	105
C=CC(=O)Nc1cc(Nc2nccc(-c3cn(C)c4ccccc34)n2)c(OC)cc1N(C)CCN(C)C + CN1CCN(c2cc(C(=O)Nc3cc4cc(-c5cnn(C)c5)ccc4cn3)ccn2)CC1	viability, T/C	53.4
C=CC(=O)Nc1cc(Nc2nccc(-c3cn(C)c4ccccc34)n2)c(OC)cc1N(C)CCN(C)C + CNC(=O)c1ccc(Nc2nc(OC3CCCC3)c3c(-c4ccc5nc(C)oc5c4)c[nH]c3n2)c(OC)c1	viability, T/C	86.7
NC(=O)C(=Cn1cnc(-c2cc(C(F)(F)F)cc(C(F)(F)F)c2)n1)c1cncnc1 + CN1CCN(c2cc(C(=O)Nc3cc4cc(-c5cnn(C)c5)ccc4cn3)ccn2)CC1	viability, T/C	61.4
CC(C)CC(NC(=O)C(Cc1ccccc1)NC(=O)c1cnccn1)B(O)O (stereo unspecified) + CNC(=O)c1ccc(Nc2nc(OC3CCCC3)c3c(-c4ccc5nc(C)oc5c4)c[nH]c3n2)c(OC)c1	viability, T/C	1.22
CC(C)CC(NC(=O)C(Cc1ccccc1)NC(=O)c1cnccn1)B(O)O (stereo unspecified) + CN1CCN(c2cc(C(=O)Nc3cc4cc(-c5cnn(C)c5)ccc4cn3)ccn2)CC1	viability, T/C	0.36
